Test system: H9 (T-Cell Non-Hodgkin's Lymphoma)
Assay: combination Emax (second highest fraction inhibited in the dose matrix, 72 h); higher = more inhibition; extreme values may be limits of the assay
Quantity name: combination Emax
# output: bare number, no unit

{"columns": ["Compound", "Tested on", "combination Emax"],
 "data": [
  ["COc1cccc2c1C(=O)c1c(O)c3c(c(O)c1C2=O)C[C@@](O)(C(=O)CO)C[C@@H]3O[C@H]1C[C@H](N)[C@H](O)[C@H](C)O1 [Doxorubicin] + Cc1cc2ncnn2cc1Nc1ncc2c(n1)n(C1CCOCC1)c(=O)n2C [AZD7648] (first compound max 1 µM, 7x7, partner max 10 µM)", "H9 (T-Cell Non-Hodgkin's Lymphoma)", 1],
  ["NC1(C(=O)N[C@@H](CCO)c2ccc(Cl)cc2)CCN(c2ncnc3[nH]ccc23)CC1 [Capivasertib] + C[C@@H]1COCCN1C2=NC(=NC(=C2)C3(CC3)[S@](=N)(=O)C)C4=C5C=CNC5=NC=C4 [AZD6738] (first compound max 10 µM, 7x7, partner max 10 µM)", "H9 (T-Cell Non-Hodgkin's Lymphoma)", 1]
]}

Return reported combination Emax; argument: NC1(C(=O)N[C@@H](CCO)c2ccc(Cl)cc2)CCN(c2ncnc3[nH]ccc23)CC1 [Capivasertib] + CC(C)n1c(=O)n(C)c2cnc3cc(F)c(-c4ccc(OCCCN5CCCCC5)nc4)cc3c21 [AZD1390] (first compound max 10 µM, 7x7, partner max 0.3 µM) 0.78

Now consider CC(=O)c1c(C)c2cnc(Nc3ccc(N4CCNCC4)cn3)nc2n(C2CCCC2)c1=O [Palbociclib] + CC1(C)CCC(CN2CCN(c3ccc(C(=O)NS(=O)(=O)c4ccc(NCC5CCOCC5)c([N+](=O)[O-])c4)c(Oc4cnc5[nH]ccc5c4)c3)CC2)=C(c2ccc(Cl)cc2)C1 [Venetoclax] (first compound max 10 µM, 7x7, partner max 1 µM) . 0.626

###

Quick reference for combination Emax among some molecules
Tested on: ST486 (Burkitt's Lymphoma)
Assay: combination Emax (second highest fraction inhibited in the dose matrix, 72 h); higher = more inhibition; extreme values may be limits of the assay
# output: bare number, no unit

Illustrative cases are given below, each with its answer.
{"columns": ["Molecule", "Tested on", "Endpoint result"],
 "data": [
  ["CS(=O)(=O)CCNCc1ccc(-c2ccc3ncnc(Nc4ccc(OCc5cccc(F)c5)c(Cl)c4)c3c2)o1 [Lapatinib] + NC1(c2ccc(-c3nc4ccn5c(=O)[nH]nc5c4cc3-c3ccccc3)cc2)CCC1 [MK-2206] (first compound max 10 µM, 7x7, partner max 10 µM)", "ST486 (Burkitt's Lymphoma)", 0.908],
  ["CN(CCO)CC[C@H](CSc1ccccc1)Nc1ccc(S(=O)(=O)NC(=O)c2ccc(N3CCC([C@@H](O)c4ccccc4-c4ccc(Cl)cc4)CC3)cc2)cc1S(=O)(=O)C(F)(F)F [AZD4320] + C1CN(CCC1(C(=O)N[C@@H](CCO)C2=CC=C(C=C2)Cl)N)C3=NC=NC4=C3C=CN4 [Capivasertib] (first compound max 1 µM, 7x7, partner max 3 µM)", "ST486 (Burkitt's Lymphoma)", 0.881]
]}

Return reported combination Emax; argument: C[C@@H]1COCCN1c1cc(C2([S@](C)(=N)=O)CC2)nc(-c2ccnc3[nH]ccc23)n1 [AZD6738] + O=C(c1cc(Cc2n[nH]c(=O)c3ccccc23)ccc1F)N1CCN(C(=O)C2CC2)CC1 [Olaparib] (first compound max 10 µM, 7x7, partner max 10 µM) 0.909
